- Test system: SW-620 colon
- TEST_DESCRIPTION: NCI tumour cell line growth inhibition, 48 h
REPORTED_ENDPOINT: TGI (µM)
Write the answer as a number in µM, unit excluded.

Check out these entries, answers already filled in.
[
  {
    "COMPOUND": "CC1=NN(C(=O)CC(=O)Nc2cccc(C)c2)C(=O)C1N=Nc1ccc(S(=O)(=O)CCOS(=O)(=O)O)cc1 (stereo not given)",
    "SUBJECT_OF_TEST": "SW-620 colon",
    "TGI [µM]": 14.5
  },
  {
    "COMPOUND": "COc1ccc2[nH]c(C(=O)N3CCN(C(=O)OCc4ccc5c(Cl)cc(Cl)c(O)c5n4)CC3)cc2c1",
    "SUBJECT_OF_TEST": "SW-620 colon",
    "TGI [µM]": 1.61
  },
  {
    "COMPOUND": "CC(=O)C(=Cc1cn(C)c(=O)n(C)c1=O)C(C)=O",
    "SUBJECT_OF_TEST": "SW-620 colon",
    "TGI [µM]": 302
  },
  {
    "COMPOUND": "CCN(CC)C(=S)SSC(C)C",
    "SUBJECT_OF_TEST": "SW-620 colon",
    "TGI [µM]": 14
  }
]

TGI measured on Cn1c(COC(=O)NCCn2ccnc2)nc2c(N3CCOCC3)nc(-c3ccccc3)nc21 = 0.58

The measurements presented in this section are drawn from PubChem BioAssay (NCI).
